molecular target: human AT1 receptor (Homo sapiens); construct: expressed in transfected cells; host or cells: CHO-K1; test: AT1 radioligand binding assay (displacement of [Eu]AngII); conditions: membranes of CHO-K1 cells expressing cloned human AT1 receptor; values given as lower bounds; read-out: AT1 pKi (converted)
endpoint: Ki

molecule="CCCc1cc(C(=O)N[C@@H](CC(=O)O)Cc2ccccc2)nn1Cc1ccc(-c2ccccc2-c2nnn[nH]2)nc1 [Example 14-6]" endpoint=Ki result="≤ 0.01 µM"
molecule="CCCc1cc(C(=O)N[C@@H](Cc2ccccc2)CN(O)C=O)nn1Cc1ccc(-c2ccccc2S(=O)(=O)NC(C)=O)cc1 [Example 6-22]" endpoint=Ki result="≤ 0.01 µM"
molecule="CCCc1cc(C(=O)N[C@@H](CC(=O)O)Cc2ccccc2)nn1Cc1ccc(-c2ccccc2-c2nnn[nH]2)cc1 [Example 2]" endpoint=Ki result="≤ 0.01 µM"
molecule="CCCc1cc(C(=O)N[C@@H](CC(=O)O)Cc2ccccc2C(F)(F)F)nn1Cc1ccc(-c2ccccc2-c2nnn[nH]2)nc1 [Example 11]" endpoint=Ki result="≤ 0.01 µM"
molecule="CCCCc1cc(C(=O)N[C@H](Cc2ccccc2)[C@@H](O)C(=O)O)nn1Cc1ccc(-c2ccccc2S(=O)(=O)NC(C)=O)cc1F [Example 6-11]" endpoint=Ki result="≤ 0.01 µM"
molecule="CCCc1cc(C(=O)N[C@H](Cc2ccccc2)[C@@H](O)C(=O)O)nn1Cc1ccc(-c2ccccc2C(=O)O)cc1 [Example 9-5]" endpoint=Ki result="≤ 0.1 µM"

====

target: NEP enzyme (Homo sapiens, UniProt P08473); construct: purchased R&D Systems, Minneapolis, Minn; 1182-ZN; assay: NEP enzyme inhibition assay (fluorogenic peptide substrate); assay type: biochemical; settings: values given as lower bounds; * = prodrugs, may not exhibit NEP activity in an in vitro assay; read-out: NEP pIC50 (converted)
Sequence (P08473 52-750 limits assumed): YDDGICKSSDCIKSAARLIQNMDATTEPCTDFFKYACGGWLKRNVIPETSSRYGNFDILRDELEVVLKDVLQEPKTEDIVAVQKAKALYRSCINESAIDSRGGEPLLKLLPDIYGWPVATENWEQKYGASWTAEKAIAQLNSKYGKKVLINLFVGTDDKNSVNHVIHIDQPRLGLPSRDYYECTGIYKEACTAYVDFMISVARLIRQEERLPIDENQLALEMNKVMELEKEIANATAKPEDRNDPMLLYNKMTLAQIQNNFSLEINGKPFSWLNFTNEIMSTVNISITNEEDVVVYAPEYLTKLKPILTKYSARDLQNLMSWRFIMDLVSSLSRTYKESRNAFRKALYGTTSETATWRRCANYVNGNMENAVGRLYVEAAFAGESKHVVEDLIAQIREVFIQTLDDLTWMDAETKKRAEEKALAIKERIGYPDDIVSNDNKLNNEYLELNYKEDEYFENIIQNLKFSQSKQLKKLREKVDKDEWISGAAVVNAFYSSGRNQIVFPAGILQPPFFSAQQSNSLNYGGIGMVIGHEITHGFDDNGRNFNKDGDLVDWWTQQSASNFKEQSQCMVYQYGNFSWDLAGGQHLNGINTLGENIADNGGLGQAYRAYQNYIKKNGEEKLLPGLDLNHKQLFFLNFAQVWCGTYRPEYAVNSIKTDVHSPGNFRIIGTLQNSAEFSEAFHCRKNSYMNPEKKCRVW
endpoint: IC50

compound_smiles=CCCc1cc(C(=O)N[C@H](Cc2ccccc2)[C@@H](O)C(=O)O)nn1Cc1ccc(-c2ccccc2S(=O)(=O)NC(=O)c2cc(C)on2)cc1 endpoint=IC50 result="≤ 1000 nM"
compound_smiles=CCCc1cc(C(=O)N[C@H](Cc2ccccc2)[C@@H](O)C(=O)O)nn1Cc1ccc(-c2ccccc2S(=O)(=O)NC(=O)c2ccno2)cc1 endpoint=IC50 result="≤ 1000 nM"
compound_smiles=CCCc1cc(C(=O)N[C@H](Cc2ccccc2)[C@@H](O)C(=O)O)nn1Cc1ccc(-c2ccccc2C(=O)O)cc1 endpoint=IC50 result="≤ 100 nM"
compound_smiles=CCCc1cc(C(=O)N[C@H](Cc2ccccc2)[C@@H](O)C(=O)O)nn1Cc1ccc(-c2ccccc2S(=O)(=O)NC(=O)CO)cc1 endpoint=IC50 result="≤ 100 nM"
compound_smiles=CCCc1cc(C(=O)N[C@@H](CC(=O)O)Cc2ccccc2C)nn1Cc1ccc(-c2ccccc2-c2nnn[nH]2)cc1 endpoint=IC50 result="≤ 10000 nM"
compound_smiles=CCCc1cc(C(=O)N[C@H](Cc2ccccc2)[C@@H](O)C(=O)O)nn1Cc1ccc(-c2ccccc2S(=O)(=O)NC(=O)N2CCOCC2)cc1 endpoint=IC50 result="≤ 100 nM"
compound_smiles=CCCc1cc(C(=O)N[C@@H](CC(=O)O)Cc2ccccc2C)nn1Cc1ccc(-c2ccccc2S(=O)(=O)NC(C)=O)cc1 endpoint=IC50 result="≤ 1000 nM"
compound_smiles=CCOc1cc(C(=O)N[C@@H](CS)Cc2ccccc2)nn1Cc1ccc(-c2ccccc2S(=O)(=O)NC(C)=O)cc1 endpoint=IC50 result="≤ 100 nM"
compound_smiles=CCCc1cc(C(=O)N[C@@H](CC(=O)O)Cc2ccccc2Cl)nn1Cc1ccc(-c2ccccc2-c2nnn[nH]2)cc1 endpoint=IC50 result="≤ 10000 nM"
compound_smiles=CCCc1cc(C(=O)N[C@H](Cc2ccccc2)[C@@H](O)C(=O)O)nn1Cc1ccc(-c2ccccc2-c2nnn[nH]2)c(F)c1 endpoint=IC50 result="≤ 1000 nM"
compound_smiles=CCOc1cc(C(=O)N[C@H](Cc2ccccc2)[C@@H](O)C(=O)O)nn1Cc1ccc(-c2ccccc2S(=O)(=O)NC(C)=O)cc1F endpoint=IC50 result="≤ 100 nM"
compound_smiles=CCOc1cc(C(=O)N[C@H](Cc2ccccc2)[C@@H](O)C(=O)O)nn1Cc1ccc(-c2ccccc2S(=O)(=O)NC(C)=O)cc1 endpoint=IC50 result="≤ 1000 nM"
compound_smiles=CCOc1cc(C(=O)N[C@@H](CS)CC(C)C)nn1Cc1ccc(-c2ccccc2-c2nnn[nH]2)cc1F endpoint=IC50 result="≤ 100 nM"
compound_smiles=CCCc1cc(C(=O)N[C@@H](CS)CC(C)C)nn1Cc1ccc(-c2ccccc2-c2nnn[nH]2)cc1F endpoint=IC50 result="≤ 100 nM"
compound_smiles=CCCc1cc(C(=O)N[C@@H](CC(=O)O)Cc2ccccc2Cl)nn1Cc1ccc(-c2ccccc2-c2nnn[nH]2)cc1F endpoint=IC50 result="≤ 1000 nM"
compound_smiles=CCCc1cc(C(=O)N[C@@H](CC(=O)NO)Cc2ccccc2)nn1Cc1c(F)cc(-c2ccccc2S(=O)(=O)NC(C)=O)cc1F endpoint=IC50 result="≤ 100 nM"
compound_smiles=CCCc1cc(C(=O)N[C@@H](CS)Cc2ccccc2)nn1Cc1ccc(-c2ccccc2-c2nc(=O)o[nH]2)cc1 endpoint=IC50 result="≤ 100 nM"
compound_smiles=CCCc1cc(C(=O)N[C@@H](CC(=O)O)Cc2ccccc2Br)nn1Cc1ccc(-c2ccccc2-c2nnn[nH]2)cc1 endpoint=IC50 result="≤ 1000 nM"
compound_smiles=CCCc1cc(C(=O)N[C@@H](CS)Cc2ccccc2)nn1Cc1ccc(-c2ccccc2S(=O)(=O)NC(C)=O)cc1 endpoint=IC50 result="≤ 100 nM"
compound_smiles=CCCc1cc(C(=O)N[C@@H](CS)CC(C)C)nn1Cc1ccc(-c2ccccc2-c2nnn[nH]2)cc1 endpoint=IC50 result="≤ 100 nM"
compound_smiles=CCCc1cc(C(=O)N[C@H](Cc2ccccc2)[C@@H](O)C(=O)NO)nn1Cc1ccc(-c2ccccc2-c2nnn[nH]2)cc1 endpoint=IC50 result="≤ 100 nM"
compound_smiles=CCCc1cc(C(=O)N[C@@H](CS)Cc2ccccc2)nn1Cc1ccc(-c2ccccc2S(=O)(=O)NC(C)=O)c(F)c1 endpoint=IC50 result="≤ 100 nM"
compound_smiles=CCCc1cc(C(=O)N[C@@H](CC(=O)O)Cc2ccccc2F)nn1Cc1ccc(-c2ccccc2-c2nnn[nH]2)nc1 endpoint=IC50 result="≤ 100 nM"
compound_smiles=CCCc1cc(C(=O)N[C@@H](CS)Cc2ccccc2)nn1Cc1ccc(-c2ccccc2-c2nnn[nH]2)nc1 endpoint=IC50 result="≤ 100 nM"
compound_smiles=CCOc1cc(C(=O)N[C@@H](CC(=O)O)Cc2ccccc2)nn1Cc1ccc(-c2ccccc2-c2nnn[nH]2)cc1F endpoint=IC50 result="≤ 10000 nM"
compound_smiles=CCCc1cc(C(=O)N[C@@H](CC(=O)O)Cc2ccccc2Cl)nn1Cc1ccc(-c2ccccc2-c2nnn[nH]2)c(F)c1 endpoint=IC50 result="≤ 1000 nM"

====

Target: human AT1 receptor (Homo sapiens, UniProt P30556)
Construct: expressed in transfected cells; host or cells: CHO-K1
Sequence (P30556 whole entry): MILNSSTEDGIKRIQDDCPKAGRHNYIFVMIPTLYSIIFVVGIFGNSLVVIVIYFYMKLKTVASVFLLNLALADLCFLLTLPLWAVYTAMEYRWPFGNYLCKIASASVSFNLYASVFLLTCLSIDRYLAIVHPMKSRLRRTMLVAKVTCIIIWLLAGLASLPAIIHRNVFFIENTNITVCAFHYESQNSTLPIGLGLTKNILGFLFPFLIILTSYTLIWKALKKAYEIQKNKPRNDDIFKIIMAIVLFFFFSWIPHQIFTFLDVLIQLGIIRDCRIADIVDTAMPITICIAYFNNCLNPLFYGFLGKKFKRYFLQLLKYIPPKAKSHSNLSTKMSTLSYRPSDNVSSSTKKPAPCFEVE
Assay: AT1 radioligand binding assay (displacement of [Eu]AngII)
Conditions: membranes of CHO-K1 cells expressing cloned human AT1 receptor; values given as lower bounds; read-out: AT1 pKi (converted)
Description: A. AT1 and AT2 Radioligand Binding Assays These in vitro assays were used to assess the ability of test compounds to bind to the AT1 and the AT2 receptors. Membrane Preparation from Cells Expressing Human AT1 or AT2 Receptors […]
endpoint: Ki

compound_smiles=CCCc1cc(C(=O)N[C@H](Cc2ccccc2)[C@@H](O)C(=O)O)nn1Cc1ccc(-c2ccccc2S(=O)(=O)NC(=O)C(C)(C)N)cc1 result="≤ 0.1 µM"
compound_smiles=CCCc1cc(C(=O)N[C@@H](CC(=O)O)CC(C)C)nn1Cc1ccc(-c2ccccc2-c2nnn[nH]2)nc1 result="≤ 0.01 µM"
compound_smiles=CCCc1cc(C(=O)N[C@H](Cc2ccccc2)[C@@H](O)C(=O)O)nn1Cc1ccc(-c2ccccc2-c2nnn[nH]2)cc1 result="≤ 0.01 µM"
compound_smiles=CCCc1cc(C(=O)N[C@H](Cc2ccccc2)[C@H](O)C(=O)O)nn1Cc1ccc(-c2ccccc2-c2nnn[nH]2)nc1 result="≤ 0.01 µM"
compound_smiles=CCCc1cc(C(=O)N[C@H](Cc2ccccc2)[C@@H](O)C(=O)O)nn1Cc1ccc(-c2ccccc2S(=O)(=O)NC(=O)c2ccncc2)cc1 result="≤ 0.01 µM"
compound_smiles=CCCc1cc(C(=O)N[C@H](Cc2ccccc2Cl)[C@@H](O)C(=O)O)nn1Cc1ccc(-c2ccccc2S(=O)(=O)NC(C)=O)cc1 result="≤ 0.01 µM"

====

biological target: human AT1 receptor (Homo sapiens, UniProt P30556); construct: expressed in transfected cells; host or cells: CHO-K1; assay: AT1 radioligand binding assay (displacement of [Eu]AngII); conditions: membranes of CHO-K1 cells expressing cloned human AT1 receptor; values given as lower bounds; read-out: AT1 pKi (converted)
// reported Ki for each item listed
endpoint: Ki

compound="CCCc1cc(C(=O)NC(CC(=O)NO)CC(C)C)nn1Cc1ccc(-c2ccccc2S(=O)(=O)NC(C)=O)c(F)c1 (centres unmarked)" result="≤ 10 nM"
compound=CCCc1cc(C(=O)N[C@@H](CC(=O)O)Cc2ccccc2Cl)nn1Cc1ccc(-c2ccccc2S(=O)(=O)NC(C)=O)cn1 result="≤ 100 nM"
compound=CCCc1cc(C(=O)N[C@@H](CC(=O)O)Cc2ccccc2)nn1Cc1cnc(-c2ccccc2S(=O)(=O)NC(C)=O)cn1 result="≤ 10 nM"
compound=CCOc1cc(C(=O)N[C@@H](CC(=O)O)Cc2ccccc2)nn1Cc1ccc(-c2ccccc2-c2nnn[nH]2)cc1 result="≤ 100 nM"
compound=CCCc1cc(C(=O)N[C@@H](CC(=O)O)Cc2ccccc2Cl)nn1Cc1ccc(-c2ccccc2S(=O)(=O)NC(C)=O)nc1 result="≤ 10 nM"
compound=CCCc1cc(C(=O)N[C@H](Cc2ccccc2)[C@@H](O)C(=O)O)nn1Cc1ccc(-c2ccccc2S(=O)(=O)NC(C)=O)cc1 result="≤ 10 nM"
compound=CCCc1cc(C(=O)N[C@@H](CC(=O)O)Cc2ccccc2Cl)nn1Cc1ccc(-c2ccccc2S(=O)(=O)NC(C)=O)cc1 result="≤ 10 nM"
compound=CCCc1cc(C(=O)N[C@H](Cc2ccccc2)[C@@H](O)C(=O)O)nn1Cc1ccc(-c2ccccc2S(=O)(=O)NC(=O)NC)cc1 result="≤ 10 nM"
compound=CCOc1cc(C(=O)N[C@@H](CC(=O)O)Cc2ccccc2)nn1Cc1ccc(-c2ccccc2-c2nnn[nH]2)cc1F result="≤ 100 nM"
compound=CCOc1cc(C(=O)N[C@@H](CS)CC(C)C)nn1Cc1ccc(-c2ccccc2-c2nnn[nH]2)cc1F result="≤ 100 nM"
compound=CCCc1cc(C(=O)N[C@@H](CS)CC(C)C)nn1Cc1ccc(-c2ccccc2C(=O)O)cc1F result="≤ 100 nM"
compound=CCCc1cc(C(=O)N[C@@H](CC(=O)O)Cc2ccccc2)nn1Cc1ccc(-c2ccccc2S(=O)(=O)NC(C)=O)cc1 result="≤ 10 nM"
compound=CCCc1cc(C(=O)N[C@@H](CC(=O)O)Cc2ccccc2Br)nn1Cc1ccc(-c2ccccc2S(=O)(=O)NC(C)=O)cc1 result="≤ 10 nM"
compound=CCCc1cc(C(=O)N[C@@H](CC(=O)O)Cc2ccccc2C)nn1Cc1ccc(-c2ccccc2S(=O)(=O)NC(C)=O)cc1 result="≤ 10 nM"
compound=CCCc1cc(C(=O)N[C@@H](CS)CC(C)C)nn1Cc1ccc(-c2ccccc2-c2nnn[nH]2)cc1 result="≤ 10 nM"
compound=CCCc1cc(C(=O)N[C@@H](CC(=O)O)Cc2cccc(F)c2)nn1Cc1ccc(-c2ccccc2-c2nnn[nH]2)nc1 result="≤ 10 nM"
compound=CCCc1cc(C(=O)N[C@@H](CC(=O)NO)Cc2ccccc2)nn1Cc1c(F)cc(-c2ccccc2S(=O)(=O)NC(C)=O)cc1F result="≤ 10 nM"
compound=CCCc1cc(C(=O)N[C@H](Cc2ccccc2)[C@@H](O)C(=O)O)nn1Cc1ccc(-c2ccccc2S(=O)(=O)NC(=O)COC)cc1 result="≤ 10 nM"
compound=CCCc1cc(C(=O)N[C@H](Cc2ccccc2)[C@@H](O)C(=O)O)nn1Cc1ccc(-c2ccccc2S(=O)(=O)NC(=O)N2CCCC2)cc1 result="≤ 100 nM"
compound=CCCc1cc(C(=O)N[C@@H](CS)Cc2ccccc2)nn1Cc1ccc(-c2ccccc2-c2nnn[nH]2)c(F)c1 result="≤ 10 nM"
compound=CCCc1cc(C(=O)N[C@@H](CC(=O)O)Cc2ccccc2C)nn1Cc1ccc(-c2ccccc2-c2nnn[nH]2)cc1 result="≤ 10 nM"
compound=CCOc1cc(C(=O)N[C@@H](CS)Cc2ccccc2)nn1Cc1ccc(-c2ccccc2-c2nnn[nH]2)cc1F result="≤ 10 nM"
compound=CCCc1cc(C(=O)N[C@@H](CC(=O)O)Cc2ccccc2Cl)nn1Cc1ccc(-c2ccccc2-c2nnn[nH]2)c(F)c1 result="≤ 10 nM"
compound=CCCc1cc(C(=O)N[C@@H](CS)Cc2ccccc2)nn1Cc1ccc(-c2ccccc2-c2nnn[nH]2)cc1F result="≤ 10 nM"
compound=CCCc1cc(C(=O)N[C@H](Cc2ccccc2)[C@@H](O)C(=O)O)nn1Cc1ccc(-c2ccccc2-n2nn[nH]c2=O)cc1 result="≤ 10 nM"
compound=CCCc1cc(C(=O)N[C@@H](CC(=O)NO)Cc2ccccc2)nn1Cc1ccc(-c2ccccc2S(=O)(=O)NC(C)=O)cc1F result="≤ 10 nM"
